Taken from patent US7737127B2.

- subject-of-test: recombinant human A2A receptors (Homo sapiens, UniProt P29274)
- Sequence (P29274 whole entry): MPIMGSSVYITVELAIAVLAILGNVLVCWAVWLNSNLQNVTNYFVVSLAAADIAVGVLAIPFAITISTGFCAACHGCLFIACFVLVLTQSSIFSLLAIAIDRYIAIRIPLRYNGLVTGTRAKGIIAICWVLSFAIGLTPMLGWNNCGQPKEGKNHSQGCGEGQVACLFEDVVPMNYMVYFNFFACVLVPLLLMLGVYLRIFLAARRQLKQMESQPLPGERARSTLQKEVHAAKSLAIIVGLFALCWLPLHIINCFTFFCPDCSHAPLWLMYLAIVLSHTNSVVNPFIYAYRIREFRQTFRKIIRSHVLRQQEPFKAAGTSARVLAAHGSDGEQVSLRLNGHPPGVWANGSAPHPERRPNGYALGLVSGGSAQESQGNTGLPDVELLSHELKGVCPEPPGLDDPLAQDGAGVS
- protocol-text: Radioligand competition binding to recombinant human A2A receptors in Sf9 cell membranes
- settings: A2A ± SEM, Ki from competition binding, Sf9 cell membranes
property-label: Ki (nM)

CCNC(=O)[C@H]1O[C@@H](n2cnc3c(N)nc(C#CCC4CCC(COC(C)=O)CC4)nc32)C(O)C1O (stereo in doubt) ... 1.1

(P) CCNC(=O)[C@H]1O[C@@H](n2cnc3c(N)nc(C#CCC4CCC(C(C)=O)CC4)nc32)C(O)C1O (stereo in doubt)
(Q) CCNC(=O)[C@H]1O[C@@H](n2cnc3c(N)nc(C#CC4(O)CCCCC4C)nc32)C(O)C1O (single isomer, unassigned) [JR-3181A]
(R) CCNC(=O)[C@H]1O[C@@H](n2cnc3c(N)nc(C#CCC4CCN(C(=O)OCC(C)C)CC4)nc32)C(O)C1O (stereo in doubt)
(S) CCNC(=O)[C@H]1O[C@@H](n2cnc3c(N)nc(C#CCC4CCC(C(=O)NC)CC4)nc32)C(O)C1O (stereo in doubt)
List items by Ki in falling order. Quick reminder: the answer is the labels in the order asked.
S, P, Q, R
(S: 3.6 nM, P: 2.4 nM, Q: 1.2 nM, R: 0.61 nM)

###

- subject-of-test: recombinant human A2A receptors (Homo sapiens, UniProt P29274)
- protocol-text: Radioligand competition binding to recombinant human A2A receptors in Sf9 cell membranes
- settings: read-out: A2A ± SEM; Ki from competition binding, Sf9 cell membranes
pKi: −log10 of the molar value.
property-label: pKi

// worked examples, pKi included
CCNC(=O)C1OC(n2cnc3c(N)nc(C#CCC4CCNCC4)nc32)C(O)C1O (stereo not shown) ... 8.24
CCNC(=O)C1OC(n2cnc3c(N)nc(C#CC4(O)CCCCC4)nc32)C(O)C1O (stereo not shown) ... 9.15
CCNC(=O)C1OC(n2cnc3c(N)nc(C#CC(O)C4CCCCC4)nc32)C(O)C1O (single isomer, unassigned) [JR-3159A] ... 9.22
COC(=O)C1CCC(CC#Cc2nc(N)c3ncn(C4OC(CO)C(O)C4O)c3n2)CC1 (stereo not shown) ... 9.15
CCNC(=O)C1OC(n2cnc3c(N)nc(C#CC4(N)CCCCC4)nc32)C(O)C1O (stereo not shown) ... 8.47

(1) CC(=O)OCC1CCC(CC#Cc2nc(N)c3ncn(C4OC(CO)C(O)C4O)c3n2)CC1 (stereo not shown)
(2) CCNC(=O)C1OC(n2cnc3c(N)nc(C#CC(O)C4CCCCC4)nc32)C(O)C1O (single isomer, unassigned) [JR-3159B]
Form field 'greater pKi' accepts 1 or 2 ; which applies? Write the label of whichever entry you select.
2
(2: 9.40, 1: 9.05)

###

- subject-of-test: A3 AR (Homo sapiens, UniProt P0DMS8)
- Sequence (P0DMS8 1-318): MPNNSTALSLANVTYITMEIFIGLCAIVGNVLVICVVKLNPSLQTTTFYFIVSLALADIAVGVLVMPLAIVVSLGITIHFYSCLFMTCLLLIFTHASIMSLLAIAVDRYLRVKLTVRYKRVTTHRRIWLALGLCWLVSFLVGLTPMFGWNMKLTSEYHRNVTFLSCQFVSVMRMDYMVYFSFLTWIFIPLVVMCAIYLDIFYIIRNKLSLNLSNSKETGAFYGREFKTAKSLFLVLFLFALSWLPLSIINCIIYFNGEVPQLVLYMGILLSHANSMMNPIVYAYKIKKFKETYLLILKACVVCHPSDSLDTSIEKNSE
- protocol-text: Radioligand competition binding (125I-ABA) to human A3 AR in HEK 293 cell membranes
- settings: A3 ± SEM, Ki from competition binding, 125I-ABA, HEK 293 cell membranes
pKi: −log10 of the molar value.
property-label: pKi

CCNC(=O)[C@H]1O[C@@H](n2cnc3c(N)nc(C#CCC4CCC(C(=O)OC)CC4)nc32)C(O)C1O (stereo in doubt) [ATL-146e] ... 7.35

(P) CCNC(=O)[C@H]1O[C@@H](n2cnc3c(N)nc(C#C[C@@]4(O)CCC[C@@H](C)C4)nc32)C(O)C1O (stereo partly drawn)
(Q) CCNC(=O)[C@H]1O[C@@H](n2cnc3c(N)nc(C#CCN4CCN(C(=O)OC(C)(C)C)CC4)nc32)C(O)C1O (stereo in doubt)
Form field 'greater pKi' accepts P or Q ; which applies? Write the label of whichever entry you select.
P

###

- subject-of-test: human A1 AR (Homo sapiens, UniProt P30542)
- Sequence (P30542 whole entry): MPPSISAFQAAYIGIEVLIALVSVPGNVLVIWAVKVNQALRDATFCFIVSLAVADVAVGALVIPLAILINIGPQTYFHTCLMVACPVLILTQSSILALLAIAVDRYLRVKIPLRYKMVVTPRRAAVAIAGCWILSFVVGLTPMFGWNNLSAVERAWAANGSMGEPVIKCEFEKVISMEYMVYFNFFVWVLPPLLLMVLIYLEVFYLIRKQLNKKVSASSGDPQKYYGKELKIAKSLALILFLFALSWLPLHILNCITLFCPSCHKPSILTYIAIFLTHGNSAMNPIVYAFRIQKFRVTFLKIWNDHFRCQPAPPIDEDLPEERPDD
- protocol-text: Radioligand competition binding (125I-ABA) to human A1 AR in CHO K1 cell membranes
- settings: A1 ± SEM, Ki from competition binding, 125I-ABA, CHO K1 cell membranes
property-label: Ki (nM)

// worked examples, Ki included
CCNC(=O)[C@H]1O[C@@H](n2cnc3c(N)nc(C#CC4(O)CCCC(C)C4)nc32)C(O)C1O (stereo partly drawn) ... 8.5
CCNC(=O)[C@H]1O[C@@H](n2cnc3c(N)nc(C#CC4(O)CCCC(C)(C)C4)nc32)C(O)C1O (stereo in doubt) [JR-3201B] ... 157

(A) CCNC(=O)[C@H]1O[C@@H](n2cnc3c(N)nc(C#CC4(O)CCCC4)nc32)C(O)C1O (stereo in doubt)
(B) CCNC(=O)[C@H]1O[C@@H](n2cnc3c(N)nc(C#CC4(O)CCCCC4C)nc32)C(O)C1O (single isomer, unassigned) [JR-3177B]
Form field 'greater Ki' accepts A or B ; which applies? Write the label of whichever entry you select.
B
(B: 15.5 nM, A: 5 nM)

(1) CCNC(=O)[C@H]1O[C@@H](n2cnc3c(N)nc(C#CC4(O)CCCCC4C)nc32)C(O)C1O (single isomer, unassigned) [JR-3181A]
(2) CCNC(=O)[C@H]1O[C@@H](n2cnc3c(N)nc(C#CCC4CCC(C)(C(=O)OC)CC4)nc32)C(O)C1O (single isomer, unassigned) [JR-3067A]
Form field 'greater Ki' accepts 1 or 2 ; which applies? Write the label of whichever entry you select.
2

###

- subject-of-test: A3 AR (Homo sapiens, UniProt P0DMS8)
- Sequence (P0DMS8 1-318): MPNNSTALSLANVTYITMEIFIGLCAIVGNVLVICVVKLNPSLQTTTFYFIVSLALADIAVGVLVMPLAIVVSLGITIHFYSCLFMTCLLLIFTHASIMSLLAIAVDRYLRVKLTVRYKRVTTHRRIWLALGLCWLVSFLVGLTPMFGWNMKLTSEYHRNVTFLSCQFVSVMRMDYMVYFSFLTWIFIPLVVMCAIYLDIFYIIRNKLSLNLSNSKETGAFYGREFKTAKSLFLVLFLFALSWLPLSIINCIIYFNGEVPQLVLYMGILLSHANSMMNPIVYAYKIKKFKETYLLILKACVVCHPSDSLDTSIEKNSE
- protocol-text: Radioligand competition binding (125I-ABA) to human A3 AR in HEK 293 cell membranes
- settings: A3 ± SEM, Ki from competition binding, 125I-ABA, HEK 293 cell membranes
property-label: Ki (nM)

(I) CCNC(=O)[C@H]1O[C@@H](n2cnc3c(N)nc(C#CC4(O)CCCC(C)(C)C4)nc32)C(O)C1O (stereo in doubt) [JR-3201B]
(II) CCNC(=O)[C@H]1O[C@@H](n2cnc3c(N)nc(C#CCC4CCC(CN(C)C)CC4)nc32)C(O)C1O (stereo in doubt)
Form field 'greater Ki' accepts I or II ; which applies? Write the label of whichever entry you select.
II

(a) CCNC(=O)[C@H]1O[C@@H](n2cnc3c(N)nc(C#CCC4CCC(C(=O)O)CC4)nc32)C(O)C1O (stereo in doubt) [ATL-146a]
(b) CCNC(=O)[C@H]1O[C@@H](n2cnc3c(N)nc(C#CC(O)(C4CCCCC4)C4CCCCC4)nc32)C(O)C1O (stereo in doubt)
Which entry shows the lesser value of Ki here, a or b ? Write the label of whichever entry you select.
a
(a: 29 nM, b: 83.7 nM)

(a) CCNC(=O)[C@H]1O[C@@H](n2cnc3c(N)nc(C#CCC4CCN(C(=O)OC)CC4)nc32)C(O)C1O (stereo in doubt)
(b) CCNC(=O)[C@H]1O[C@@H](n2cnc3c(N)nc(C#CC4(O)CCCCNC4=O)nc32)C(O)C1O (single isomer, unassigned) [JR-3243A]
(c) CCNC(=O)[C@H]1O[C@@H](n2cnc3c(N)nc(C#CCC4CCC(COC(C)=O)CC4)nc32)C(O)C1O (stereo in doubt)
List items by Ki in falling order. Quick reminder: the answer is the labels in the order asked.
c, a, b

###

- subject-of-test: recombinant human A2A receptors (Homo sapiens)
- protocol-text: Radioligand competition binding to recombinant human A2A receptors in Sf9 cell membranes
- settings: A2A ± SEM, Ki from competition binding, Sf9 cell membranes
property-label: Ki (nM)

(A) CCNC(=O)[C@H]1O[C@@H](n2cnc3c(N)nc(C#CCC4CCC(CC)CC4)nc32)C(O)C1O (stereo in doubt)
(B) CCNC(=O)[C@H]1O[C@@H](n2cnc3c(N)nc(C#CC[C@H]4CC[C@H](COC(=O)OC)CC4)nc32)C(O)C1O (stereo partly shown)
Which entry shows the lesser value of Ki here, A or B ? Write the label of whichever entry you select.
B
